# TARGET OR SYSTEM: Neurogenic locus notch homolog protein 3 (Homo sapiens)
# ASSAY NAME: small molecules binding NOTCH3 protein – biochemical, 635/667 nm fluorescence, primary screen (AID 1096)
# STATED CONDITIONS: small-molecule microarray, 635 nm fluorescence, higher = more signal
Entries and their measured composite z-score follow.

Some entries whose results are on file:
{"columns": ["COMPOUND", "TARGET OR SYSTEM", "composite z-score"],
 "data": [
  ["CCN(CC)c1ccc(N2CC=CC34O[C@@H]5/C=C\\CCCOC(=O)C5[C@H]3C(=O)N(C(C)CO)[C@@H]4C2=O)cc1 (stereo partly drawn)", "Neurogenic locus notch homolog protein 3 (Homo sapiens)", 0.204],
  ["CCCC=C(CCC)[C@@H](NP(=O)(c1ccccc1)c1ccccc1)c1ccc(-c2ccccc2)cc1", "Neurogenic locus notch homolog protein 3 (Homo sapiens)", 1.12],
  ["[N-]=[N+]=Nc1ccccc1C[C@]1(C(=O)NCC(O)CO)COC(c2ccc(OCCCO)cc2)=N1 (stereo partly drawn)", "Neurogenic locus notch homolog protein 3 (Homo sapiens)", -1.26]
]}

Looking up `[N-]=[N+]=Nc1ccccc1C[C@@]1(C(N)=O)N=C(c2ccc(OCCCO)cc2)O[C@@H]1c1ccccc1N=[N+]=[N-]` , I found its composite z-score recorded as 0.0955

----------
# TARGET OR SYSTEM: NADPH oxidase 4 (Homo sapiens) (UniProt Q9NPH5)
# Sequence (Q9NPH5 whole entry, looked up): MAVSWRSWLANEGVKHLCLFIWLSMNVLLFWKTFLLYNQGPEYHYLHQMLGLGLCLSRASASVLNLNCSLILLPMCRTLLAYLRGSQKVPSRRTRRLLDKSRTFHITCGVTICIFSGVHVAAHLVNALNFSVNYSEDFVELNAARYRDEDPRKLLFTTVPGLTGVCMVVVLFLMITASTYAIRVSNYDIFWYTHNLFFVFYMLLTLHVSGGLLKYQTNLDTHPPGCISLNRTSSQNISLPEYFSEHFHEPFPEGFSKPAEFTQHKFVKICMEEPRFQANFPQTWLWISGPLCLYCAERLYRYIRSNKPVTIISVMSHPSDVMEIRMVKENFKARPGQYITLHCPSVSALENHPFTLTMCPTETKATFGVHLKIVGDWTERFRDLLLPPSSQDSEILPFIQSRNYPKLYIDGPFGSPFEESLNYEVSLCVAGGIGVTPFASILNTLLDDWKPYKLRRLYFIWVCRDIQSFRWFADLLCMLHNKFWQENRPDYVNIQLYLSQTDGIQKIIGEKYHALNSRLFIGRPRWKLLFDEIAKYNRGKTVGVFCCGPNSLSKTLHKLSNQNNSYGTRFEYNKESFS
# ASSAY NAME: compounds shifting NOX4 Amplex Red fluorescence – cell-based, HEK293-NOX4, tetracycline-induced, NOX inhibitor project, primary screen (AID 1160)
# STATED CONDITIONS: HEK293-NOX4, Amplex Red H2O2 fluorescence, 45 min; higher = more signal, called active from +8 up or from −8 down
Param threshold (-0.07) applies to z-score; output True when value >= threshold, False when value < threshold.

{"columns": ["MOLECULE", "CLASS ASSIGNMENT"],
 "data": [
  ["CCOC(=O)C1=C[C@@H](C(C)(C)C)N(S(=O)(=O)c2ccc(C)cc2)[C@H]1c1cccc2ccccc12", "True"]
]}

Query string: Does the reported z-score for CCN(CC)c1ccc(N2CC=CC34O[C@@H]5/C=C\CCCOC(=O)C5[C@H]3C(=O)N(C(C)CO)[C@@H]4C2=O)cc1 (stereo not given in full) fall at or above the -0.07 mark?
Result string: False

Query string: Does the reported z-score for O=C1CS(=O)(=O)C(c2cccc([N+](=O)[O-])c2)N1c1ccccc1 (stereo not given) fall at or above the -0.07 mark?
Result string: True

Query string: Does the reported z-score for CCCCC(CC)C(O)C1C=CC2C(=O)N(c3ccccc3)C(=O)C2N1Nc1ccccc1F (stereo not given) fall at or above the -0.07 mark?
Result string: True

Query string: Does the reported z-score for `CCOC(=O)C=Cc1cccc(C)c1O` fall at or above the -0.07 mark?
Result string: False

----------
# ASSAY NAME: growth modulation of vineyard yeast isolate – strain RM11-1a, OD600, basal, 24 h, primary screen (AID 1177);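 further: cultures grown under basal conditions with no added stressor; test concentration not given here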
# STATED CONDITIONS: S. cerevisiae RM11-1a growth, OD600, 24 h; higher = more signal, called active from +8 up or from −8 down
Active and inactive are the calls of the source.
Entries and their measured z-score follow.

Some entries whose results are on file:
{"columns": ["SMI", "z-score"],
 "data": [
  ["CO[C@H]1O[C@H](CO)[C@@H](OC(=O)CCc2ccccc2)[C@@H]2OC(=O)[C@@H](Cc3ccccc3)C/C=C/C[C@H](Cc3ccccc3)C(=O)O[C@@H]12", "0.532 (inactive)"],
  ["COC(=O)[C@@H]1N=C(c2ccc(OCCCO)cc2)O[C@@H]1C", "0.895 (inactive)"],
  ["C=C(C(=O)CC[C@H](OC(=O)c1ccccc1-c1ccccc1C(=O)O)c1cccc(OCCO)c1)C(C)C", "-0.427 (inactive)"]
]}

Continue with the molecule presented below.
Looking up `CCCCC=C[C@@H](NC(=O)OCc1ccccc1Cl)c1ccccc1` , I found its z-score recorded as 1.48 (inactive)
